test: Fraction unbound in rat brain; format: ADME, tissue-based
outcomeMeasure: fraction unbound
Just the number, please, no unit attached.

Could you tell me which fraction unbound is on file for CC(C)(CN1CCN(C2=Cc3ccccc3Cn3cc(F)nc32)CC1)C(=O)O ?
0.45

* * *

Entries and their Ki values follow.
target: 5-hydroxytryptamine receptor 2B (Homo sapiens, UniProt P41595); test: Antagonist activity at human 5HT2B receptor expressed in human SHSY5Y cells by FLPR assay
Sequence (P41595 whole entry): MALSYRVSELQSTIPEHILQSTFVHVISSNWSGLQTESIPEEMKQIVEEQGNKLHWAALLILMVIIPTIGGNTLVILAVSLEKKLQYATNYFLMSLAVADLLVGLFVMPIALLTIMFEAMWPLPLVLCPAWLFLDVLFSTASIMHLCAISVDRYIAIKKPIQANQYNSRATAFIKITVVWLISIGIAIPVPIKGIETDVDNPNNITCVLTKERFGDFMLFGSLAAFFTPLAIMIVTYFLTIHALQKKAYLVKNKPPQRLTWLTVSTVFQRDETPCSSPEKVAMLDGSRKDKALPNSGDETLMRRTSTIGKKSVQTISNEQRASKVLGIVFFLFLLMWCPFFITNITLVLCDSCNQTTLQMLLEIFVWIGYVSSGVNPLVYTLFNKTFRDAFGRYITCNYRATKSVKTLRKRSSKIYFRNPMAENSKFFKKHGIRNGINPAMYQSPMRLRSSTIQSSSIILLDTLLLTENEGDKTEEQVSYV

Example entries begin here.
O=C(O)C1CCC(N2CCN(C3=Cc4ccccc4Cn4ccnc43)CC2)CC1 (single isomer, unassigned; isomer 1); 39.8 nM
CC(C)(CN1CCN(C2=Cc3ccccc3Cn3ccnc32)CC1)C(=O)O; 1580 nM
CC(C)(CN1CCCN(C2=Cc3ccccc3Cn3ccnc32)CC1)C(=O)O; > 2000 nM

Which Ki is reported for this compound? CC1CN(C2=Cc3ccccc3Cn3ccnc32)CC(C)N1CCC(=O)O (centres undefined)
631 nM

And for O=C(O)CCN1CCN(C2=Cc3ccccc3Cn3ccnc32)CC1 ?
> 794 nM

Now the compound CC(C)(CN1CCN(C2=Cc3ccccc3Cn3cc(Cl)nc32)CC1)C(=O)O
100 nM

Next record, please: CC(C)(CN1CCN(C2=Cc3ccccc3Cn3cc(F)nc32)CC1)C(=O)O
316 nM

Again, but for C1=C(N2CCNCC2)c2nccn2Cc2ccccc21
316 nM

And what about the compound COc1cnc2n1Cc1ccccc1C=C2N1CCN(CC(C)(C)C(=O)O)CC1 ?
158 nM

Can you handle O=C(O)C1CC(N2CCN(C3=Cc4ccccc4Cn4ccnc43)CC2)C1 (stereo in doubt; 13) next?
> 794 nM

Moving on to the next compound: C=C(CN1CCN(C2=Cc3ccccc3Cn3ccnc32)CC1)C(=O)O
> 794 nM

What do you have for O=C(O)C1CCC(N2CCN(C3=Cc4ccccc4Cn4ccnc43)CC2)CC1 (stereo in doubt; 16) ?
25.1 nM

Next compound up: Cc1nc2n(c1C)Cc1ccccc1C=C2N1CCN(CC(C)(C)C(=O)O)CC1
15.8 nM

How about this compound: Cc1cn2c(n1)C(N1CCN(CC(C)(C)C(=O)O)CC1)=Cc1ccccc1C2
63.1 nM

* * *

molecular target: UniProt:P35367; test: Antagonist activity at human recombinant histamine H1 receptor expressed in CHO cells by FLPR assay
Sequence (P35367 whole entry): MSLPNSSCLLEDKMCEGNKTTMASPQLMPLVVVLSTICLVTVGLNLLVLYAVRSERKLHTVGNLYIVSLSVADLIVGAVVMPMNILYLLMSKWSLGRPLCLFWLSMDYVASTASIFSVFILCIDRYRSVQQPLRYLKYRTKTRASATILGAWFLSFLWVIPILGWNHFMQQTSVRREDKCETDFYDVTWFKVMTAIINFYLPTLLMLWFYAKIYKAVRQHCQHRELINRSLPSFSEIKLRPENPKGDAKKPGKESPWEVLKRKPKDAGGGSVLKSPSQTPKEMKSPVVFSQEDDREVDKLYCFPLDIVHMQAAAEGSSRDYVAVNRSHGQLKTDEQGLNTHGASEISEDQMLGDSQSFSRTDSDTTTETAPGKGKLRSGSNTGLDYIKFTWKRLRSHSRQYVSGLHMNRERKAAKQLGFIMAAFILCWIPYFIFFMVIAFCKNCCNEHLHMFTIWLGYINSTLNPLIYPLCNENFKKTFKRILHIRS
outcomeMeasure: Ki

Example entries and their recorded answers appear below.
O=C(O)C1CC(N2CCN(C3=Cc4ccccc4Cn4ccnc43)CC2)C1 (stereo in doubt; 13); 12.6 nM
O=C(O)C1CCC(N2CCN(C3=Cc4ccccc4Cn4ccnc43)CC2)CC1 (single isomer, unassigned; isomer 1); 126 nM
CC(C)(CN1CCCN(C2=Cc3ccccc3Cn3ccnc32)CC1)C(=O)O; 50.1 nM
Cc1nc2n(c1C)Cc1ccccc1C=C2N1CCN(CC(C)(C)C(=O)O)CC1; 39.8 nM
C=C(CN1CCN(C2=Cc3ccccc3Cn3ccnc32)CC1)C(=O)O; 31.6 nM
CC(C)(CN1CCN(C2=Cc3ccccc3Cn3ccnc32)CC1)C(=O)O; 25.1 nM

Can you look up the measured Ki of CC(C)(CN1CCN(C2=Cc3ccccc3Cn3cc(F)nc32)CC1)C(=O)O for me?
39.8 nM

Could you do the same for Cc1cn2c(n1)C(N1CCN(CC(C)(C)C(=O)O)CC1)=Cc1ccccc1C2 , please?
50.1 nM

CC1CN(C2=Cc3ccccc3Cn3ccnc32)CC(C)N1CCC(=O)O (centres undefined) ?
20 nM
